Tested on: 885512-296-R-J2-PDC complex spheroid growth, % test/control
Test: Anticancer human tumor 885512-296-R-J2-PDC patient-derived breast carcinoma cell line growth inhibition [AhR]; active = viability on the fitted dose curve at most 10% of control; inactive = the rest
Settings: second compound 3.16 µM; first compound 3.16 µM
Mark one answer only. Choices: active, inactive

Look over these answered cases.
Q: Given COc1cc(Nc2ncc3c(n2)-c2ccc(Cl)cc2C(c2c(F)cccc2OC)=NC3)ccc1C(=O)O + Cc1cncc(-c2nc(NCCc3c[nH]c4ccccc34)c3ncn(C(C)C)c3n2)c1 , state the outcome it received in this test.
Result: inactive

Q: Consider next the compound O=C(C=Cc1cccc(S(=O)(=O)Nc2ccccc2)c1)NO + CC(CO)NC(=O)c1cc(-c2ccc(Cl)cc2)nn(-c2cnn(C)c2)c1=O in the same way.
Result: inactive

Now, please, on to the next compound.
Q: Identify the outcome logged in this assay for the compound shown: NS(=O)(=O)OCC1CC(n2ccc3c(NC4CCc5ccccc54)ncnc32)CC1O (stereo not drawn) + Cc1ccccc1N=Nc1ccc(NC(=O)c2ccnn2C)c(C)c1
Result: active

###

Tested on: 885512-296-R-J2-PDC complex spheroid growth, % test/control
Assay: Anticancer human tumor 885512-296-R-J2-PDC cell line growth inhibition [AhR]; active = viability on the fitted dose curve at most 10% of control; inactive = the rest;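 note: spheroids exposed to compounds for seven days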
Settings: second compound 3.16 µM; first compound 3.16 µM
Pick one and only one: y for active, n for inactive

Q: Look up the recorded call for O=C(C=Cc1cccc(S(=O)(=O)Nc2ccccc2)c1)NO + Cc1ccccc1N=Nc1ccc(NC(=O)c2ccnn2C)c(C)c1 in this test.
Result: n

Q: And what about the compound O=C(C=Cc1cccc(S(=O)(=O)Nc2ccccc2)c1)NO + Cc1cncc(-c2nc(NCCc3c[nH]c4ccccc34)c3ncn(C(C)C)c3n2)c1 ?
Result: n

Q: Consider next the compound COc1cccc2c1C(=O)c1c(O)c3c(c(O)c1C2=O)CC(O)(C(=O)CO)CC3OC1CC(N)C(O)C(C)O1 (stereo unspecified) + Cc1ccccc1N=Nc1ccc(NC(=O)c2ccnn2C)c(C)c1 in the same way.
Result: y

Q: Also COc1cc(Nc2ncc3c(n2)-c2ccc(Cl)cc2C(c2c(F)cccc2OC)=NC3)ccc1C(=O)O + CC(CO)NC(=O)c1cc(-c2ccc(Cl)cc2)nn(-c2cnn(C)c2)c1=O ?
Result: n

Q: Try this compound too: COc1cc(C2c3cc4c(cc3C(OC3OC5COC(C)OC5C(O)C3O)C3COC(=O)C23)OCO4)cc(OC)c1O (stereo unspecified) + Cc1ccccc1N=Nc1ccc(NC(=O)c2ccnn2C)c(C)c1
Result: y

Moving on to the next compound.
Q: Per the assay record, what outcome was assigned to COc1cc(C2c3cc4c(cc3C(OC3OC5COC(C)OC5C(O)C3O)C3COC(=O)C23)OCO4)cc(OC)c1O (stereo unspecified) + Cc1cncc(-c2nc(NCCc3c[nH]c4ccccc34)c3ncn(C(C)C)c3n2)c1 ?
Result: n

###

System: 885512-296-R-J2-PDC complex spheroid growth, % test/control
Test: Anticancer human tumor 885512-296-R-J2-PDC cell line growth inhibition [AhR]; active = viability on the fitted dose curve at most 10% of control; inactive = the rest;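 note: spheroids exposed to compounds for seven days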
Conditions: second compound 0.1 µM; first compound 0.003 µM
Log the outcome using a class from True for active, False for inactive

Q: Please let me know the test result on file for Nc1ncn(C2CC(O)C(CO)S2)c(=O)n1 (stereo not drawn) + Cc1ccccc1N=Nc1ccc(NC(=O)c2ccnn2C)c(C)c1 .
Result: False

Q: Same question, Nc1ncn(C2CC(O)C(CO)S2)c(=O)n1 (stereo not drawn) + Cc1cncc(-c2nc(NCCc3c[nH]c4ccccc34)c3ncn(C(C)C)c3n2)c1 this time
Result: False

Continuing:
Q: Which result was noted for this compound in the test: CCc1c2c(nc3ccc(O)cc13)-c1cc3c(c(=O)n1C2)COC(=O)[C@]3(O)CC + CC(CO)NC(=O)c1cc(-c2ccc(Cl)cc2)nn(-c2cnn(C)c2)c1=O
Result: True

###

System: 885512-296-R-J2-PDC complex spheroid growth, % test/control
Experiment: Anticancer human tumor 885512-296-R-J2-PDC cell line growth inhibition [AhR];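 note: spheroids exposed to compounds for seven days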
Conditions: second compound 10 µM; first compound 1 µM; active compounds read low
Label 1.0 when viability, T/C is strictly below 3%; otherwise label 0.0.

For orientation, consider the following solved cases.
Q: is_below(viability, T/C, 3%) for CC(C)c1c(-c2ccccc2)nc2c(C#N)c[nH]n2c1=O + Cc1cncc(-c2nc(NCCc3c[nH]c4ccccc34)c3ncn(C(C)C)c3n2)c1 ?
Result: 0.0

Q: Try the compound COc1cccc2c1C(=O)c1c(O)c3c(c(O)c1C2=O)CC(O)(C(=O)CO)CC3OC1CC(N)C(O)C(C)O1 (configuration not stated) + Cc1cncc(-c2nc(NCCc3c[nH]c4ccccc34)c3ncn(C(C)C)c3n2)c1
Result: 1.0

Q: Also COc1cc(Nc2ncc3c(n2)-c2ccc(Cl)cc2C(c2c(F)cccc2OC)=NC3)ccc1C(=O)O + Cc1ccccc1N=Nc1ccc(NC(=O)c2ccnn2C)c(C)c1 , if possible.
Result: 0.0

Q: Ok, now CC1COCCN1c1cc(-c2ccnn2C)c2ccnc(-c3ccn[nH]3)c2n1 (configuration not stated) + Cc1cncc(-c2nc(NCCc3c[nH]c4ccccc34)c3ncn(C(C)C)c3n2)c1
Result: 1.0

Q: Same question for O=C(C=Cc1cccc(S(=O)(=O)Nc2ccccc2)c1)NO + Cc1ccccc1N=Nc1ccc(NC(=O)c2ccnn2C)c(C)c1 please.
Result: 0.0

Continuing:
Q: For CC1COCCN1c1cc(-c2ccnn2C)c2ccnc(-c3ccn[nH]3)c2n1 (configuration not stated) + CC(CO)NC(=O)c1cc(-c2ccc(Cl)cc2)nn(-c2cnn(C)c2)c1=O , is the recorded viability, T/C below the cut-off of 3%?
Result: 1.0

Q: For COc1cccc2c1C(=O)c1c(O)c3c(c(O)c1C2=O)CC(O)(C(=O)CO)CC3OC1CC(N)C(O)C(C)O1 (configuration not stated) + CC(CO)NC(=O)c1cc(-c2ccc(Cl)cc2)nn(-c2cnn(C)c2)c1=O then?
Result: 1.0

Q: Proceed to COc1cccc2c1C(=O)c1c(O)c3c(c(O)c1C2=O)CC(O)(C(=O)CO)CC3OC1CC(N)C(O)C(C)O1 (configuration not stated) + Cc1ccccc1N=Nc1ccc(NC(=O)c2ccnn2C)c(C)c1
Result: 1.0

Q: Also, Nc1ccn(C2OC(CO)C(O)C2(F)F)c(=O)n1 (configuration not stated) + CC(CO)NC(=O)c1cc(-c2ccc(Cl)cc2)nn(-c2cnn(C)c2)c1=O please.
Result: 0.0

Q: Now the same for CC1COCCN1c1cc(C2(S(C)(=N)=O)CC2)nc(-c2ccnc3[nH]ccc23)n1 (configuration not stated) + Cc1ccccc1N=Nc1ccc(NC(=O)c2ccnn2C)c(C)c1
Result: 0.0

Q: Same thing, different compound: COc1ccc([C@@H](O)c2cc(-c3ncnc4cc(N5CCOCC5)ccc34)c(F)cc2Cl)nn1 + CC(CO)NC(=O)c1cc(-c2ccc(Cl)cc2)nn(-c2cnn(C)c2)c1=O
Result: 0.0

###

Reported viability, T/C values for the following molecules.
Tested on: 885512-296-R-J2-PDC complex spheroid growth, % test/control
Assay: Anticancer human tumor 885512-296-R-J2-PDC cell line growth inhibition [AhR];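 note: spheroids exposed to compounds for seven days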
Settings: second compound 1 µM; first compound 0.1 µM; active compounds read low
State the answer as a number, implicitly in %.

Before answering, review these 5 worked examples.
Q: Returns the measured viability, T/C for the input molecule. Input: COc1cc(Nc2ncc3c(n2)-c2ccc(Cl)cc2C(c2c(F)cccc2OC)=NC3)ccc1C(=O)O + Cc1cncc(-c2nc(NCCc3c[nH]c4ccccc34)c3ncn(C(C)C)c3n2)c1
Result: 37.8

Q: Queued: CC1COCCN1c1cc(-c2ccnn2C)c2ccnc(-c3ccn[nH]3)c2n1 (stereo unspecified) + Cc1ccccc1N=Nc1ccc(NC(=O)c2ccnn2C)c(C)c1
Result: 12

Q: Input Cn1ncnc1C1c2n[nH]c(=O)c3cc(F)cc(c23)NC1c1ccc(F)cc1 (stereo unspecified) + CC(CO)NC(=O)c1cc(-c2ccc(Cl)cc2)nn(-c2cnn(C)c2)c1=O
Result: 64.7

Q: // same read-out, input: O=C(c1cc(Cc2n[nH]c(=O)c3ccccc23)ccc1F)N1CCN(C(=O)C2CC2)CC1 + Cc1ccccc1N=Nc1ccc(NC(=O)c2ccnn2C)c(C)c1
Result: 133

Q: Okay, and CC1(C)CCC(CN2CCN(c3ccc(C(=O)NS(=O)(=O)c4ccc(NCC5CCOCC5)c([N+](=O)[O-])c4)c(Oc4cnc5[nH]ccc5c4)c3)CC2)=C(c2ccc(Cl)cc2)C1 + CC(CO)NC(=O)c1cc(-c2ccc(Cl)cc2)nn(-c2cnn(C)c2)c1=O ?
Result: 108

***
Q: # query: viability, T/C of entry O=C(C=Cc1cccc(S(=O)(=O)Nc2ccccc2)c1)NO + CC(CO)NC(=O)c1cc(-c2ccc(Cl)cc2)nn(-c2cnn(C)c2)c1=O
Result: 101

###

Let's look at some compounds and their measured viability, T/C.
Test system: 885512-296-R-J2-PDC complex spheroid growth, % test/control
Assay: Anticancer human tumor 885512-296-R-J2-PDC cell line growth inhibition [AhR];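 note: spheroids exposed to compounds for seven days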
Conditions: second compound 0.1 µM; first compound 0.0949 µM; active compounds read low

Field: example entries. Status: answers known.
Q: Item CCc1c2c(nc3ccc(O)cc13)-c1cc3c(c(=O)n1C2)COC(=O)[C@]3(O)CC + Cc1ccccc1N=Nc1ccc(NC(=O)c2ccnn2C)c(C)c1 has what recorded viability, T/C?
Result: 1.83%

Q: Try this compound too: CC(C)CC(NC(=O)C(Cc1ccccc1)NC(=O)c1cnccn1)B(O)O (stereo not drawn) + Cc1ccccc1N=Nc1ccc(NC(=O)c2ccnn2C)c(C)c1
Result: 0.26%

Consider the record given below.
Q: Given the compound CCN(c1cc(-c2ccc(CN3CCOCC3)cc2)cc(C(=O)NCc2c(C)cc(C)[nH]c2=O)c1C)C1CCOCC1 + Cc1cncc(-c2nc(NCCc3c[nH]c4ccccc34)c3ncn(C(C)C)c3n2)c1 , what is its reported viability, T/C?
Result: 91.3%
